assay: Quantitative High-Throughput drug screen in 47 multiple myeloma cell lines against the NCATS MIPE library collection: LP1_DSMZ cell viability assay (AID 1918982); settings: LP1 myeloma viability, CellTiter-Glo ATP luminescence, 48 h; series mostly up to 45.8 µM; also: nearly all actives have a fitted effect of over 35% in size
Inconclusive results are not listed. Active and inactive are the calls of the source. Calls follow the shape of the dose curve; as a rule, active = well fitted cell-killing curve with a large enough effect; inconclusive = small, poorly fitted or top-dose-only effect, or effect the other way; inactive = no such curve, though single readings can be large or run the other way.
Write down one outcome, taken from active, inactive

CCN1C[C@]2(OC(=O)c3ccccc3NC(C)=O)CC[C@H](OC)[C@@]34[C@H]5CC6[C@@H](OC)C[C@](O)(C(C[C@@H]23)[C@@H]14)[C@@]5(O)[C@@H]6OC: inactive
N=c1c2c(-c3ccccc3)c(-c3ccccc3)n(Cc3ccccc3)c2ncn1C1CCC(O)CC1 (centres undefined): active
CCCCCC[C@H]1C(=O)O[C@H](C)[C@H](NC(=O)c2cccc(NC=O)c2O)C(=O)O[C@@H](C)[C@@H]1OC(=O)CC(C)C: active

Please let me know the test result on file for C[C@](O)(COc1ccc(C#N)cc1)C(=O)Nc1ccc(C#N)c(C(F)(F)F)c1 .
inactive

Please let me know the test result on file for CC(=CCCC1=CCC(C2=CC(=O)OC2O)OC1O)CCC1=C(C)CCCC1(C)C (centres undefined) .
inactive

Please let me know the test result on file for CC(N[C@H]1C[C@H]1c1ccccc1)c1ccc2c(c1)OCCO2 (some centres undefined) .
inactive

Please let me know the test result on file for C[C@@H]1CC[C@@]2(OC1)O[C@H]1C[C@H]3[C@@H]4CC=C5C[C@@H](O[C@@H]6O[C@H](CO)[C@@H](O[C@@H]7O[C@@H](C)[C@H](O)[C@@H](O)[C@@H]7O)[C@H](O)[C@@H]6O[C@@H]6O[C@@H](C)[C@H](O)[C@@H](O)[C@@H]6O)CC[C@]5(C)[C@@H]4CC[C@]3(C)[C@@H]1[C@H]2C .
active

###

Assay: High Content Imaging Cell-Based qHTS for Inhibitors of the mTORC1 Signaling Pathway in MEF Cells (AID 2667)
Settings: series mostly up to 38.3 µM
Description: NIH Molecular Libraries Probe Production Centers Network [MLPCN] NIH Chemical Genomics Center [NCGC] Assay Submitter (PI): Blenis, John; Hoffman, Greg; Harvard University […] For quantitative high throughput analysis of mTORC1 signaling, we developed a cell-based assay for immuno-fluorescence based detection of rpS6 phosphorylation on the Acumen Explorer that will be used a platform for the primary small molecule screen. […]
Records with an inconclusive call do not appear. Activity calls are given as the source filed them. Calls come from the whole dose curve; as a rule, active = well fitted inhibition curve with a large enough effect; inconclusive = small, poorly fitted or top-dose-only effect, or effect the other way; inactive = no such curve, though single readings can be large or run the other way.
Write down one outcome, taken from True (active), False (inactive)

C[C@]12CCC3C(CC[C@H]4C[C@H](O)CC[C@]34C)C1CC[C@@H]2C(=O)CO (stereo not given in full): False
C[C@@H]1O[C@H](C[N+](C)(C)C)C[C@H]1O: False
CC[C@@]1(O)C(=O)OCc2c1cc1n(c2=O)Cc2cc3ccccc3nc2-1: True
CN1C2CCC1CC(OC(=O)c1cc(Cl)cc(Cl)c1)C2 (stereo not given): False
O=C1CCCN1CC#CCN1CCCC1: False
CCCN(CCC)[C@@H]1CCc2ccc(O)cc2C1: False

Please let me know the test result on file for CCCN(CCC)C1CCc2ccc(O)cc2C1 (stereo not given) .
False

Please let me know the test result on file for Cn1cnc(CCN)c1 .
False

Please let me know the test result on file for CC(C)Oc1cccnc1N(C)C1CCN(Cc2ccccc2)CC1 .
False

Please let me know the test result on file for S=C(NC1CCCCC1)N1CCC(c2cnc[nH]2)CC1 .
False

Please let me know the test result on file for CC(C)NC(C)Cc1ccc(I)cc1 (stereo not given) .
False

Please let me know the test result on file for c1ccc2sc(C3(N4CCCCC4)CCCCC3)cc2c1 .
False

Please let me know the test result on file for C/C=C(/C)C(=O)O[C@H]1C(C)=C2[C@H]([C@@H]1OC(=O)CCCCCCC)[C@@](C)(OC(C)=O)C[C@H](OC(=O)CCC)[C@@]1(O)[C@H]2OC(=O)[C@@]1(C)O .
True

Please let me know the test result on file for C=CCN1CC[C@]23CCCCC2[C@H]1Cc1ccc(O)cc13 (stereo not given in full) .
False

Please let me know the test result on file for O=C(O)CC[N+](=O)[O-] .
False

Please let me know the test result on file for NC(CCP(=O)(O)O)C(=O)O (stereo not given) .
False

Please let me know the test result on file for CS(=N)(=O)CC[C@H](N)C(=O)O (stereo not given in full) .
False

Please let me know the test result on file for Cc1c(C(=O)c2cccc3ccccc23)c2cccc3c2n1[C@H](CN1CCOCC1)CO3 .
True

Source: PubChem BioAssay (NCATS)
